# Test system: GRN mRNA
# testName: GRN mRNA qPCR in SK-N-AS cells transfected with ASOs
# Type: cell-based, human
# measurementParameters: Table 12; SK-N-AS, 30 nM; normalized to CO-1589
Oligonucleotides are written 5' to 3', each unit as a sugar letter and its base; * is a phosphorothioate linkage, no mark a phosphodiester; rarer units and linkages stand in square brackets, end groups in braces. Plain capitals give the bases only. e = 2'-O-(2-methoxyethyl) (MOE); [5mC] = 5-methylcytosine
readoutType: 30 nM FC (GRN mRNA) (FC)

CO-6384: ASO based on parent ASO CO-3462 (antisense eG*eT*eA*eG*eG*eA*eG*eA*eA*eT*e[5mC]*eG*e[5mC]*eT*eT*eT*eG*eG*eG*eA)
1.0
CO-6517: ASO based on parent ASO CO-3462 (antisense eT*eA*eGeGeAeGeAeAeTe[5mC]eGe[5mC]eTeTeTeGeG*eG*eA*eG)
1.2
CO-6520: ASO based on parent ASO CO-3462 (antisense eT*eA*eG*eG*eA*eG*eA*eAeTe[5mC]eGe[5mC]eTeTeTeGeGeG*eA*eG)
1.0
